method summary: Cycloheximide Counterscreen for Small Molecule Inhibitors of Shiga Toxin; also: read at 38.3 µM for the half of the compounds with a filed dose; 0% is about no effect
test conditions: cell reporter, cycloheximide protein synthesis inhibition counterscreen; stronger effect = higher value
The whole screen tested about 300,000 compounds, of which about 37,000 (12%) were called active. This excerpt belongs to a sample that is enriched for actives.
Here the recorded max response is given for each entry.

molecule | max response (%)
Cc1cc(C)c(NC(=O)CS(=O)CC(=O)Nc2cccnc2)c(C)c1 (configuration not stated) | 3.39
COc1ccc(OC)c(NC(=O)CSc2nc(-c3ccccc3)cc(=O)[nH]2)c1 | -6.47
COc1cc(NC(=O)CN2C(=O)NC(C)(c3ccc(OC(F)F)cc3)C2=O)cc(OC)c1OC (configuration not stated) | -2.19
Cc1ccc(S(=O)(=O)N(C)C)cc1NC(=O)C1Cc2ccccc2CN1C(=O)c1ccco1 (configuration not stated) | -2.92
CC(NC(=S)NNS(=O)(=O)c1ccc(C(C)(C)C)cc1)c1ccccc1 (configuration not stated) | -3.09
O=S1(=O)CCO[C@H]2Cc3ccccc3[C@H]2N1Cc1ccccc1 | -1.34
Cc1ccc(NC(=S)NCc2ccccc2Cl)c(C)c1 | 10.7
CCCOc1ccc(NC(=O)CC2C(=O)N(C)C(=S)N2Cc2ccc3c(c2)OCO3)cc1 (configuration not stated) | -2.42
C/C(N)=C(/C#N)C(=O)COC(=O)C1=NN(c2ccccc2)C(=O)CC1 | -5.97
COC(c1ccccc1)(c1ccccc1)C(Oc1nc(C)cc(C)n1)C(=O)O (configuration not stated) | -1.54
O=[N+]([O-])c1ccc(Oc2ccc(F)cc2Br)c2ccncc12 | -2.77
COc1ccc(N(CC(=O)NC2CCCCC2)C(=O)CNC(=O)c2ccco2)c(OC)c1 | 1.11
Cc1cccc(NC(=S)NCCc2ccc(Cl)cc2)c1C | 17.3
COc1cc(/C(=C/c2ccccc2)c2ccccc2)c2c(c1)oc1ccccc12 | -1.79
CCC(=O)Nc1ccc(C(=O)NNC(=O)c2ccc(Cl)cc2)cc1 | -0.754
Cc1cc(C)nc(-n2nc(C)cc2NC(=O)c2ccc(F)cc2F)n1 | -3.69
CCCC1=Nc2cc(C(=O)NCCN3CCCC3)ccc2Sc2ccccc21 | -5.31
COc1ccc(-c2csc(Nc3ccccn3)n2)cc1 | 40.4
Cc1cccc(-n2cnc(C(=O)Nc3cccnc3)c2)n1 | 25.5
CC(NC(=O)c1ccco1)C(=O)Nc1nc(-c2ccccn2)cs1 (configuration not stated) | -2.97
Clc1ccc(Nc2nc(-c3cccs3)cs2)nc1 | 37.5
O=C(NCC(c1cccs1)N1CCOCC1)c1cc(-c2ccccn2)nc2ccccc12 (configuration not stated) | -1.88

---

Here the recorded max response is given for each entry.
method summary: Cycloheximide Counterscreen for Small Molecule Inhibitors of Shiga Toxin; also: read at 38.3 µM for the half of the compounds with a filed dose; 0% is about no effect
test conditions: cell reporter, cycloheximide protein synthesis inhibition counterscreen; stronger effect = higher value
About 37,000 (12%) of roughly 300,000 compounds were called active. The sample as a whole holds a higher share of actives than the screen did.
measured property: max response (%)

compound | unit text | numeric value
CCOC(=O)C1(Cc2ccc(Cl)cc2)CCN(C(=O)C2=NNC(=O)CC2)CC1 | % | 10.1
COc1ccccc1CNC(=O)[C@@H]1CCCN1C(=O)[C@@H]1Cc2ccccc2CN1C(=O)OC(C)(C)C | % | 8.54
Cc1n[nH]c(C)c1S(=O)(=O)N1CCCC(C(=O)Nc2ccc(Br)cc2)C1 (stereo not given) | % | -4.38
CC(=O)N1CCC(C(=O)OCc2ccc(Cl)cc2)(c2ccccc2)CC1 | % | 1.9
CCc1ccc(-c2cc3c(=O)n(CC(=O)NCCCN4CCN(Cc5ccccc5)CC4)nc(C)n3n2)cc1 | % | -1.84
